Read-out: KRT18 (gene 3875)
Assay: BSK_BF4T_Keratin818: BioMAP Diversity Plus: BF4T Assay for Keratin 818 Biomarker Activity (AID 2284266)
Conditions: primary human bronchial epithelial cells with fibroblasts
Active and inactive are the calls of the source. The calls were made as follows: active = hit-call score of the fitted dose curve at least 0.9, where 1 is the maximum; inactive = score below 0.9.
recordedMetric: outcome

FC(F)(F)C(F)(F)C(F)(F)C(F)(F)C(F)(F)CCI
inactive
O=C(CC(=O)C(F)(F)C(F)(F)F)C(F)(F)F
inactive
O=C(O)C(F)(F)C(F)(F)F
inactive

====

Tested on: TTR (gene 7276)
Experiment: CCTE_GLTED_hTTR_0.125uM: CCTE's human Transthyretin (hTTR) Inhibition Assay, with 0.125uM TTR, Great Lakes Toxicology and Ecology Division (GLTED) Lab (AID 2284431);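 also: hits lower the fluorescence signal relative to DMSO baseline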
Active and inactive are the calls of the source. The calls were made as follows: active = hit-call score of the fitted dose curve at least 0.9, where 1 is the maximum; inactive = score below 0.9.
recordedMetric: AC50

## Task What does the data say about its AC50? Entry: CCCCC(CC)COP(=O)(O)OCC(CC)CCCC (centres undefined)
## Result 5.44 µM (active)

## Task What does the data say about its AC50? Entry: c1ccc(B(c2ccccc2)c2ccccc2)cc1
## Result 1.6 µM (active)

## Task What does the data say about its AC50? Entry: Cc1ccc(S(=O)(=O)NCl)cc1
## Result 44.5 µM (active)

## Task What does the data say about its AC50? Entry: CC(Cc1ccc(O)c(O)c1)C(C)Cc1ccc(O)c(O)c1 (centres undefined)
## Result 0.0909 µM (active)
